Ref: the supplement of paper PMC12764529

protocol_details: folding stability dG unfold from chymotrypsin proteolysis; higher = more stable
Assign classes using reported folding stability dG unfold values and the ranges interval 1 (below 0.3 kcal/mol), interval 2 (0.3 kcal/mol to below 2 kcal/mol), interval 3 (2 kcal/mol or more), please.

query_sequence: SAGGSAGGSAGGSSMLTTRPLPGGRTLLRTTLPDGTILVTRYDAAGEPVLETLPPSTPLLSAGGSAGGSAGG [r7_215_JUSTAS]
class_label: interval 1
//
query_sequence: SAGGSMKIVEIKIKRNKNGKLTIEIKVELSEEELEDKEKRKKLIEELAKKLAEELEKKFGIKVEVPSAGGSA [r2_306_TrROS_Hall]
class_label: interval 3
//
query_sequence: SAGGSAMFVVVEVESPEELRELVEEEDPSVFLLPTEDGEERLVVVDPENPENIRVIPLERPELLAPSAGGSA [r15_11_TrMRF]
class_label: interval 1
//
query_sequence: MKKKVTISIKRKSEVKYTKFPNGEVVPVEDLGGLTVTIEVPESELEELLKKLDIPEDEIEEITVTITPEASS [r1_351_JUSTAS]
class_label: interval 1
//
query_sequence: SDLDPNSTLVFSAPFPVSDPDALLEHAETVARELGPDVRVERVVFDPNTPNVAVVEVSVPGGTVTLVYSRSA [r9_1079_TrMRF]
class_label: interval 2
//
query_sequence: SAGGKVVTVEVELENGVRVTVEFVEEDGYLALKVTVEVRLPAPPVTTADGREKEVTRRLELVILLPKESAGG [r13_780_TrROS_Hall]
class_label: interval 3
//
query_sequence: SAGGSAKIVIKPDGTIEVEVNGKTFTFPPGAEIEIEEKDGELVLRIRLFNKDGKEVEEFEVTVRIESAGGSA [r15_424_TrROS_Hall]
class_label: interval 3
//
query_sequence: MKVEIVEVEYDEETKRVRVKLKVDGKLVEIEFDLESGKVTVRIYEDGEEIEIEAESVEDALEKAKELVKEKS [r1_177_TrROS_Hall]
class_label: interval 2
//
query_sequence: SAGGSAGGSSPVKQVTEVKDPHSSLPLLRTTETLVLPNGEVVTKVKFIDTKTGKSTEEIFTIPSAGGSAGGS [r20_229_JUSTAS]
class_label: interval 2
//
query_sequence: SAGGSAGGSAGGDEILELERIPETGELVLRRITPDGEGFRIEEEVVPVGPELAEALPEGSAGGSAGGSAGGS [r10_291_TrMRF]
class_label: interval 1
//
query_sequence: SAGGSAMITLEVEVPPGNAEEAAEAVAEELAEKLGVEVTIEKVEVEYDPVTNLTRVPVEIKINPPLSAGGSA [r15_70_JUSTAS]
class_label: interval 2
//
query_sequence: SEDTVTIEVRAFPVKDKNGKPRFYVSIEFGNGPVSYPIPGLPEGMKEGETFTIEIPPENIKKVDISIMPYSA [r9_769_TrROS]
class_label: interval 3
//
query_sequence: SAGGSAGGSAGMVLPRPDGSLVVITEHPDGTVTVTFAPPDKPITIEVPKEEPVDIRVFPLSAGGSAGGSAGG [r11_164_TrMRF]
class_label: interval 2

###

protocol_details: folding stability dG unfold from chymotrypsin proteolysis; higher = more stable
The sequences listed here are annotated with their folding stability dG unfold.
quantity_kind: folding stability dG unfold (kcal/mol)

query_sequence: SAGGSAGGSKTITVRVKITLPNGETIEVEAEITVRPDGSITITLPDGSTITLPPGAKVEIEPVSAGGSAGGS [r20_227_TrROS_Hall]
quantity_kind: folding stability dG unfold
observed_measurement: 2.51

query_sequence: SAGGSAGGSSSSTLISVEPSPGIVTVERPLSLDPVPVVERRIMTVSPSSSLSVTETSVFPVSLLSAGGSAGG [r6_970_JUSTAS]
quantity_kind: folding stability dG unfold
observed_measurement: 0.932

query_sequence: SAGGSAGGSAGGMKVTVEYPDALSVEVEPDSATTTYPNGSRIVVEAPGVTTYDPLPPERSSAGGSAGGSAGG [r7_30_JUSTAS]
quantity_kind: folding stability dG unfold
observed_measurement: 0.117

query_sequence: SAGGSAGGSAGGDDNDPGKIKIEVEVETYPIPNPNGEPFYITTHTIKIPNLDIEFMMIMPSAGGSAGGSAGG [r7_945_TrROS]
quantity_kind: folding stability dG unfold
observed_measurement: 1.45

query_sequence: SAGGSAGGSAGGEPIPTKTIEVDEATGTVTVTVTFPPPNETVTVTRPAPPDVSLEEVLASAGGSAGGSAGGS [r10_676_JUSTAS]
quantity_kind: folding stability dG unfold
observed_measurement: 1.58

query_sequence: SAGGSAKKKEVKELTLVIKVKTEEEALKAAEELIRKLLPPDAEIVEVKVEKVKPGEVYITVKVRLKSAGGSA [r15_183_TrROS_Hall]
quantity_kind: folding stability dG unfold
observed_measurement: 3.99

query_sequence: SAGGSVIVKLPNGKILEVSPSELAGYKPGAAVKFPDGTAQVVNPETDEVIDIPIDSPEKIIEAIKKAASAGG [r13_962_TrMRF]
quantity_kind: folding stability dG unfold
observed_measurement: 0.365
